Where a name gives a salt, the structure may show the parent alone.
% Dead cells (vehicle subtracted) values recorded for mouse cortical neuron cultures
The reply should contain only the number, in %.

These recorded examples may help you get a feel for the data.
O=C(O)c1nc(Cl)ccc1Cl; -1.907
CCNc1nc(N)nc(Cl)n1; 1.813
CC(C)=CC1C(C(=O)OCc2coc(Cc3ccccc3)c2)C1(C)C (stereo not shown) [Resmethrin]; 1.827
O=c1n(Cl)c(=O)n(Cl)c(=O)n1Cl [Symclosene (Trichloro-s-triazinetrione)]; 4.474
COC(=O)C=C(C)OP(=O)(OC)OC; -2.439
COc1ccc(C(c2ccc(OC)cc2)C(Cl)(Cl)Cl)cc1 [Methoxychlor]; -0.6222
CNC(=O)Oc1cccc(N=CN(C)C)c1 [Formetanate hydrochloride]; 1.887
CON(C)C(=O)Nc1ccc(Cl)c(Cl)c1 [Linuron]; -0.9348
CC(C)C1(C)N=C(c2nc3ccccc3cc2C(=O)O)NC1=O (stereo not shown) [Imazaquin]; -2.73
CNc1cnn(-c2cccc(C(F)(F)F)c2)c(=O)c1Cl [Norflurazon]; -0.1097

Given CCOc1nc(F)cc2nc(S(=O)(=O)Nc3c(Cl)cccc3Cl)nn12 [Diclosulam] , report its % Dead cells (vehicle subtracted) on mouse cortical neuron cultures.
0.003204

Given O=C(O)CCCOc1ccc(Cl)cc1Cl , report its % Dead cells (vehicle subtracted) on mouse cortical neuron cultures.
-0.3394

Given Cc1c(COC(=O)[C@@H]2[C@H](/C=C(\Cl)C(F)(F)F)C2(C)C)cccc1-c1ccccc1 (racemic) [Bifenthrin] , report its % Dead cells (vehicle subtracted) on mouse cortical neuron cultures.
0.2358

Given COP(=O)(OC)SCn1c(=O)oc2cc(Cl)cnc21 [Azamethiphos] , report its % Dead cells (vehicle subtracted) on mouse cortical neuron cultures.
-0.5762

Given O=C(NC(=O)c1c(F)cccc1F)Nc1ccc(OC(F)(F)C(F)OC(F)(F)F)c(Cl)c1 (stereo not shown) [Novaluron] , report its % Dead cells (vehicle subtracted) on mouse cortical neuron cultures.
-1.142

Given CCCCC(CC)CN1C(=O)C2C3C=CC(C3)C2C1=O (stereo not shown) , report its % Dead cells (vehicle subtracted) on mouse cortical neuron cultures.
-0.09059

Given COc1nc(NC(C)C)nc(NC(C)C)n1 , report its % Dead cells (vehicle subtracted) on mouse cortical neuron cultures.
-1.14

Given O=c1ccc(=O)[nH][nH]1 [Maleic hydrazide] , report its % Dead cells (vehicle subtracted) on mouse cortical neuron cultures.
7.215

Given CCOP(=S)(OCC)SCCSCC [Disulfoton] , report its % Dead cells (vehicle subtracted) on mouse cortical neuron cultures.
2.557

----------
Tested on: mouse cortical neuron cultures
Listed compounds paired with reported % Dead cells (vehicle subtracted)
The reply should contain only the number, in %.

These recorded examples may help you get a feel for the data.
Cc1ccc(/N=C/N(C)/C=N/c2ccc(C)cc2C)c(C)c1 [Amitraz]; 0.3334
C[C@@H]1[C@@H](c2ccc(Cl)cc2)SC(=O)N1C(=O)NC1CCCCC1 [Hexythiazox]; 0.5871
Oc1cc(Cl)ccc1Oc1ccc(Cl)cc1Cl [Triclosan]; 0.6048
COC(=O)c1c(C(F)F)nc(C(F)(F)F)c(C2=NCCS2)c1CC(C)C [Thiazopyr]; 1.196
CC1(C)C(C=C(Cl)Cl)C1C(=O)OC(C#N)c1ccc(F)c(Oc2ccccc2)c1 (stereo not shown) [Cyfluthrin (Baythroid)]; -3.677
O=[N+]([O-])c1c(Cl)c(Cl)c(Cl)c(Cl)c1Cl [Quintozene]; -2.206
CNC(=O)Oc1ccccc1OC(C)C [Propoxur]; 0.5409
CCOC1Oc2ccc(OS(C)(=O)=O)cc2C1(C)C (stereo not shown) [Ethofumesate]; -0.3872
NCCO.O=C(O)c1nc(Cl)ccc1Cl [Clopyralid-olamine]; 0.5713

Let's switch to this compound now.
Identify % Dead cells (vehicle subtracted) associated with the compound CCSC(=O)N1CCCCCC1 [Molinate]
7.609

----------
System: mouse cortical neuron cultures
Settings: mouse, 24 h, 10 µM
Listed molecules paired with reported % Dead cells (vehicle subtracted)
The reply should contain only the number, in %.

These recorded examples may help you get a feel for the data.
CC(C1CC1)C(O)(Cn1cncn1)c1ccc(Cl)cc1 (stereo not shown); 6.321
CCCCOC(=O)C(C)Oc1ccc(Oc2ccc(C(F)(F)F)cn2)cc1 (stereo not shown); 7.788
CC(C)(C)[C@@H](O)[C@@H](Cc1ccc(Cl)cc1)n1cncn1 (racemic); -2.562
O=[N+]([O-])NC1=NCCN1Cc1ccc(Cl)nc1; -3.0763
CCOC(=O)C(C)OC(=O)c1cc(Oc2ccc(C(F)(F)F)cc2Cl)ccc1[N+](=O)[O-] (stereo not shown); -1.539
Cc1ccn2nc(S(=O)(=O)Nc3c(F)cccc3F)nc2n1; 0.4495

Given O=C(Nc1ccccc1-c1ccc(Cl)cc1)c1cccnc1Cl , report its % Dead cells (vehicle subtracted) on mouse cortical neuron cultures.
-4.045

Given Cc1cc(C)nc(Nc2ccccc2)n1 , report its % Dead cells (vehicle subtracted) on mouse cortical neuron cultures.
-4.407

Given CCOCN(C(=O)CCl)c1c(C)cccc1CC , report its % Dead cells (vehicle subtracted) on mouse cortical neuron cultures.
2.3535

Given CCNc1nc(NC(C)C)nc(SC)n1 , report its % Dead cells (vehicle subtracted) on mouse cortical neuron cultures.
0.09019

----------
% Dead cells (vehicle subtracted) values recorded for mouse cortical neuron cultures
Output should be the measured figure followed by the unit it is expressed in.

These recorded examples may help you get a feel for the data.
CCOc1cc(C(C)(C)C)ccc1C1COC(c2c(F)cccc2F)=N1 (stereo not drawn); -1.186%
CCOC(=O)CC(SP(=S)(OC)OC)C(=O)OCC (stereo not drawn); -1.492%
O=C(O)C(F)(F)C(F)(F)C(F)(F)C(F)(F)C(F)(F)C(F)(F)C(F)(F)F; -2.482%
CCNP(=S)(OC)O/C(C)=C/C(=O)OC(C)C (stereo not drawn); -0.3061%

Let's switch to this compound now.
Given CCCN(CCC)C(=O)SCC , report its % Dead cells (vehicle subtracted) on mouse cortical neuron cultures.
3.437%

----------
Test system: mouse cortical neuron cultures
Details: mouse, 24 h, 10 µM
MEASURE_NAME: % Dead cells (vehicle subtracted) (%)
The reply should contain only the number, in %.

CCCCC(O)(Cn1cncn1)c1ccc(Cl)cc1Cl (stereo not drawn); -2.068
C=CCOC(=O)C(C)(C)OC(=O)c1cc(-n2c(=O)cc(C(F)(F)F)n(C)c2=O)ccc1Cl; -4.681
CCCCOCN(C(=O)CCl)c1c(CC)cccc1CC; 0.2625
COc1cc(OC)nc(Sc2cccc(Cl)c2C(=O)O)n1 [Pyrithiobac-sodium]; 0.5188
COC(=O)c1ccccc1CS(=O)(=O)NC(=O)Nc1nc(OC)cc(OC)n1; -2.606

Identify % Dead cells (vehicle subtracted) associated with the compound O=C1c2ccccc2C(=O)N1SC(Cl)(Cl)Cl
-1.248

Identify % Dead cells (vehicle subtracted) associated with the compound CCC(C)Nc1c([N+](=O)[O-])cc(C(C)(C)C)cc1[N+](=O)[O-] (stereo not drawn)
4.6194

Identify % Dead cells (vehicle subtracted) associated with the compound CN(C)C(=O)Nc1cccc(C(F)(F)F)c1
0.2278

Identify % Dead cells (vehicle subtracted) associated with the compound COc1cnc(OC)n2nc(NS(=O)(=O)c3c(OCC(F)F)cccc3C(F)(F)F)nc12
-0.3089

Identify % Dead cells (vehicle subtracted) associated with the compound CC(C)NC(=O)N1CC(=O)N(c2cc(Cl)cc(Cl)c2)C1=O
8.376

Identify % Dead cells (vehicle subtracted) associated with the compound CC(C)(C)C(O)C(Oc1ccc(Cl)cc1)n1cncn1 (stereo not drawn)
2.51

Identify % Dead cells (vehicle subtracted) associated with the compound CC(COc1ccc(Oc2ccccc2)cc1)Oc1ccccn1 (stereo not drawn)
1.128

Identify % Dead cells (vehicle subtracted) associated with the compound CCCCNC(=O)n1c(NC(=O)OC)nc2ccccc21
1.032

Identify % Dead cells (vehicle subtracted) associated with the compound CC(C)OC(=O)Nc1cccc(Cl)c1
-1.179

Identify % Dead cells (vehicle subtracted) associated with the compound Clc1cccc(C(Cl)(Cl)Cl)n1
0.473

Identify % Dead cells (vehicle subtracted) associated with the compound CCOC(=O)C(C)Oc1ccc(Oc2cnc3cc(Cl)ccc3n2)cc1 (stereo not drawn)
-4.709

Identify % Dead cells (vehicle subtracted) associated with the compound CCCCCOC(=O)COc1cc(N2C(=O)C3=C(CCCC3)C2=O)c(F)cc1Cl
-0.6581

Identify % Dead cells (vehicle subtracted) associated with the compound Cc1cc(C2CC2)nc(Nc2ccccc2)n1
-6.385

Identify % Dead cells (vehicle subtracted) associated with the compound CCC(C)(CC)c1cc(NC(=O)c2c(OC)cccc2OC)on1
-1.274

Identify % Dead cells (vehicle subtracted) associated with the compound COc1ccc(C(=CC(=O)N2CCOCC2)c2ccc(Cl)cc2)cc1OC
-1.666

Identify % Dead cells (vehicle subtracted) associated with the compound CSC1=N[C@@](C)(c2ccccc2)C(=O)N1Nc1ccccc1
1.638

Identify % Dead cells (vehicle subtracted) associated with the compound COC(=O)CSc1cc(/N=c2\sc(=O)n3n2CCCC3)c(F)cc1Cl
-0.383

Identify % Dead cells (vehicle subtracted) associated with the compound FC(F)C(F)(F)OCC(Cn1cncn1)c1ccc(Cl)cc1Cl (stereo not drawn)
2.833

Identify % Dead cells (vehicle subtracted) associated with the compound CN(C)[C@@H]1C(O)=C(C(N)=O)C(=O)[C@@]2(O)C(O)=C3C(=O)c4c(O)cccc4[C@@](C)(O)[C@H]3[C@H](O)[C@@H]12 [Oxytetracycline dihydrate]
21.6384

Identify % Dead cells (vehicle subtracted) associated with the compound CC1(C)CCC(=Cc2ccc(Cl)cc2)C1(O)Cn1cncn1 (stereo not drawn)
0.8709

Identify % Dead cells (vehicle subtracted) associated with the compound CSc1nc(NC(C)C)nc(NC(C)C)n1
-5.322

Identify % Dead cells (vehicle subtracted) associated with the compound CCSC(=O)N(CC)C1CCCCC1 [Cycloate]
2.452
